Parameter autophagy induction: see the listing below.
Test system: U2OS
procedure text: Here: values are normalized to the negative (DMSO; defined as 0% autophagy induction) and positive (250nM Torin1; mTOR inhibitor; defined as maximal inducer of autophagy = 100%) control compounds and represented as % of autophagy induction. […] The impact of autophagy induction on cells is complex and depends on the affected target. As such, the magnitude of a phenotype may not be equally mirrored in the %-value of autophagy induction and vice versa. The dynamics of the induction may indicate the mode of activation: e.g. activation via phosphorylation or a signaling cascade may occur fast, while activation via transcription factors may take considerably longer. […] Of note, treatment concentrations may be sub-optimal for specific compounds, leading to false negative annotations.
Assay type: functional, Homo sapiens
stated conditions: Compound Concentration 0.5 uM, Timepoint 60 hours, Culturing Media DMEM, 1 % Penicillin/Streptomycin, 10% Fetal bovin serum Add-On: No, Screening Media Control DMEM, Screening Media Samples DMEM
Report the value in % with no unit label.

Examples with answers:
compound | value unit | autophagy induction
Cc1nc(C#Cc2ccnc(Cl)c2)c(C)n1-c1ccc(OC(F)(F)F)cc1 | % | 1.571
Cc1c(OCc2cccc(-c3ccc(C(=O)O)cc3)c2)cc2c(c1C)C(=O)C(C1CCCC1)C2 (configuration not stated) | % | -0.5665
CCCCN(CC)c1nc(C)nc2c1c(C)cn2-c1c(C)cc(C)cc1C.Cl | % | 0.4484
Cc1csc(NC(=O)c2cc(F)cc(Oc3cncnc3)c2)n1 | % | -8.75
CC(C)NC(=O)c1ccc(C#Cc2ccncc2)cn1 | % | 0.1744

Return reported autophagy induction; argument: Cc1nc(C(=O)N2CCC[C@H]2Cc2nnc(-c3ccccc3)o2)c(-c2ccccc2F)s1
3.676

Now give it for N[C@H](C(=O)O)c1ccc(C(=O)O)c(C(=O)O)c1 too.
-15.497
